# Test system: Staphylococcus aureus
# Test Method Notes: Antimicrobial activity against CA-methicillin-resistant Staphylococcus aureus W4 ST338 incubated for 20 hrs by microdilution method
# Format: functional
# Condition Summary: W4 ST338, 20 h
Exercise: state measured MIC for each of the compounds provided.
Give bare numbers, in µg/mL.

// known answers, use as guide
> print(dat)
                              sample.smiles  unit.symbol  reported.measurement
1  O=C(O)c1cn(C2CC2)c2cc(N3CCNCC3)c(F)cc2c1=O        µg/mL                   0.5
2  CC(C)(C)c1cccc(NCc2cc([N+](=O)[O-])ccc2O)c1        µg/mL                     4
3  O=[N+]([O-])c1ccc(O)c(CNc2ccccc2C(F)(F)F)c1        µg/mL                     2

Items follow; give MIC for each.
1. CC(C)(C)c1ccccc1NCc1cc([N+](=O)[O-])ccc1O
2. Cc1onc(-c2ccccc2)c1C(=O)N[C@@H]1C(=O)N2[C@@H]1SC(C)(C)[C@@H]2C(=O)O
3. O=[N+]([O-])c1ccc(O)c(CNc2cccc(Cl)c2)c1
4. C#Cc1cccc(NCc2cc([N+](=O)[O-])cc(Br)c2O)c1
5. CC(C)(C)c1ccc(NCc2cc([N+](=O)[O-])ccc2O)cc1

stdout:
1: 2; 2: 0.5; 3: 8; 4: 2; 5: 4

stdin: For the compound O=[N+]([O-])c1ccc(O)c(CNc2ccccc2Cl)c1 , what MIC is on record?
stdout: 4

----------
# Tested on: Staphylococcus aureus
# Test Method Notes: Antimicrobial activity against Staphylococcus aureus ATCC BAA43 incubated for 20 hrs by microdilution method
# Type: functional
# Condition Summary: ATCC BAA43, 20 h
Endpoint: MIC (µg/mL)
Give bare numbers, in µg/mL.

// known answers, use as guide
> print(dat)
                              sample.smiles                    tgt  endpoint  reported.measurement
1  O=C(O)c1cn(C2CC2)c2cc(N3CCNCC3)c(F)cc2c1=O  Staphylococcus aureus       MIC                     2
2  CC(C)(C)c1ccccc1NCc1cc([N+](=O)[O-])ccc1O  Staphylococcus aureus       MIC                     2
3  CC(C)(C)c1cccc(NCc2cc([N+](=O)[O-])ccc2O)c1  Staphylococcus aureus       MIC                     2

Items follow; give MIC for each.
1. C#Cc1cccc(NCc2cc([N+](=O)[O-])cc(Br)c2O)c1
2. O=[N+]([O-])c1ccc(O)c(CNc2ccccc2Cl)c1
3. CC(C)(C)c1ccc(NCc2cc([N+](=O)[O-])ccc2O)cc1
4. O=[N+]([O-])c1ccc(O)c(CNc2ccccc2C(F)(F)F)c1
5. O=[N+]([O-])c1ccc(O)c(CNc2cccc(Cl)c2)c1

stdout:
1: 2; 2: 2; 3: 4; 4: 4; 5: 4

----------
# System: Staphylococcus aureus
# Test Method Notes: Antimicrobial activity against Staphylococcus aureus ST239 incubated for 20 hrs by microdilution method
# Format: functional
# Condition Summary: CN79, 20 h
Endpoint: MIC (µg/mL)
Give bare numbers, in µg/mL.

Items follow; give MIC for each.
1. CC(C)(C)c1cccc(NCc2cc([N+](=O)[O-])ccc2O)c1
2. O=[N+]([O-])c1ccc(O)c(CNc2ccccc2Cl)c1

stdout:
1: 8; 2: 8
